System: MRSA 33
Assay: MIC by agar incorporation method, MRSA 33
Assay type: cell-based, Methicillin Resistant Staphylococcus aureus
Parameters: unit not given here
Conditions: Mueller Hinton agar, 10^4 CFU/spot, 24 hours
endpoint_label: In Vitro (MIC) MRSA 33
Give the value as a plain number.

Example results:
O=C(CCl)NC[C@H]1CN(c2ccc(N3CCN(Cc4ccc([N+](=O)[O-])s4)CC3)c(F)c2)C(=O)O1 ... 4
CC(Cl)C(=O)NC[C@H]1CN(c2ccc(N3CCN(Cc4cc(Br)c([N+](=O)[O-])s4)CC3)c(F)c2)C(=O)O1 (stereo partly shown) ... 8
CC(=O)NC[C@H]1CN(c2ccc(N3CCN(C(=O)c4ccc([N+](=O)[O-])o4)CC3C)c(F)c2)C(=O)O1 (stereo partly shown) ... 1
CC(=O)NC[C@H]1CN(c2ccc(N3CCN(Cc4ccoc4[N+](=O)[O-])CC3)c(F)c2)C(=O)O1 ... 4

q: Find the recorded In Vitro (MIC) MRSA 33 belonging to CCN(C(=O)c1ccc([N+](=O)[O-])o1)C1CCN(c2ccc(N3C[C@H](CNC(C)=O)OC3=O)cc2F)CC1 and report it.
a: 1

====

Test system: MRSA 15187
Test: MIC by agar incorporation method, MRSA 15187
Type: cell-based, Methicillin Resistant Staphylococcus aureus
Design: unit not given here
Conditions: Mueller Hinton agar, 10^4 CFU/spot, 24 hours
In Vitro (MIC) MRSA 15187 less than 1 is True; In Vitro (MIC) MRSA 15187 greater than or equal to 1 is False.

Some solved cases for reference:
CC(=O)NC[C@H]1CN(c2ccc(N3CCN(C(=O)c4cc(N(C)C)c([N+](=O)[O-])s4)CC3)c(F)c2)C(=O)O1 [Compound No. 38] ... False
CC(=O)NC[C@H]1CN(c2ccc(N3CCC(N=Cc4ccc([N+](=O)[O-])o4)CC3)c(F)c2)C(=O)O1 [Compound No. 85] ... False
CC(=O)NC[C@H]1CN(c2ccc(N3CCN(C(C)c4ccc([N+](=O)[O-])s4)CC3)c(F)c2)C(=O)O1 (stereo partly shown) [Compound No. 100] ... True
CC(=O)NC[C@H]1CN(c2ccc(N3CCC(N(C)C(=O)c4ccc([N+](=O)[O-])s4)C3)c(F)c2)C(=O)O1 (stereo partly shown) [Compound No. 91] ... True
CC(=O)NC[C@H]1CN(c2ccc(N3C(C)CN(Cc4ccc([N+](=O)[O-])o4)CC3C)c(F)c2)C(=O)O1 (stereo partly shown) [Compound No. 63] ... False

q: Field: below-cutoff. Rule: recorded In Vitro (MIC) MRSA 15187 strictly less than 1. Subject: CC(=O)NC[C@H]1CN(c2ccc(N3CCC(NCc4ccc([N+](=O)[O-])s4)CC3)c(F)c2)C(=O)O1 [Compound No. 84]
a: False

q: Field: below-cutoff. Rule: recorded In Vitro (MIC) MRSA 15187 strictly less than 1. Subject: CC(=O)NC[C@H]1CN(c2ccc(N3CCN(Cc4cc([N+](=O)[O-])cs4)CC3)c(F)c2)C(=O)O1 [Compound No. 14]
a: True

q: Field: below-cutoff. Rule: recorded In Vitro (MIC) MRSA 15187 strictly less than 1. Subject: CC(=O)NC[C@H]1CN(c2ccc(N3CCC(N(C)C(=O)c4ccc([N+](=O)[O-])o4)C3)c(F)c2)C(=O)O1 (stereo partly shown) [Compound No. 92]
a: True

The measured values listed here are drawn from patent US20040242591A1.
